Entries and their percent cell growth values follow.
- Tested on: ACHN
- PROTOCOL_DETAILS: NCI-60 screen (SRB)
- Type: cell-based, human
- DETAILS: ACHN (Renal Cancer), 10 µM, 48 h; negative = cell death vs time zero
Quick note: give the figure in %, leave out the unit.

>>> df
                                   compound  experimental_result
0  C=CC/N=C1\NC(=O)/C(=C\c2c[nH]c3ncccc23)S1                 −1.2

Entry under review: Cl.O=C1NC(=NCCc2ccccc2)SC1=Cc1c[nH]c2ncccc12 (mixture of isomers) [DJ4-HCl] . Reported percent cell growth?
−12.0

Same read-out for CC/N=C1\NC(=O)/C(=C\c2c[nH]c3ncccc23)S1 ?
0.7

Same read-out for O=C1N/C(=N\CCc2ccccc2)S/C1=C/c1c[nH]c2ncccc12 ?
16.0

====

- PROTOCOL_DETAILS: Solubility in 100% DMSO (observation)
- Format: physicochemical
RESULT_TYPE: solubility in 100% DMSO

Consider the following illustrative entries.
In [3]: df
Out[3]:
                                   molecule     experimental_result
0  O=C1N/C(=N\CCN2CCOCC2)S/C1=C/c1c[nH]c2ncccc12 [DJ-Morpholine]         poor solubility
1  CC/N=C1\NC(=O)/C(=C\c2c[nH]c3ncccc23)S1 [DJE4]  much better solubility
2  O=C1N/C(=N\CCc2ccccc2)S/C1=C/c1c[nH]c2ncccc12 [DJ4]  much better solubility
3  O=C1N/C(=N\Cc2ccccc2)S/C1=C/c1c[nH]c2ncccc12 [DJ110]         poor solubility

Entry under review: C=CC/N=C1\NC(=O)/C(=C\c2c[nH]c3ncccc23)S1 [DJ-Allyl] . Reported solubility in 100% DMSO?
much better solubility

====

- SUBJECT_OF_TEST: ROCK1 (Homo sapiens)
- Sequence (Q13464 whole entry): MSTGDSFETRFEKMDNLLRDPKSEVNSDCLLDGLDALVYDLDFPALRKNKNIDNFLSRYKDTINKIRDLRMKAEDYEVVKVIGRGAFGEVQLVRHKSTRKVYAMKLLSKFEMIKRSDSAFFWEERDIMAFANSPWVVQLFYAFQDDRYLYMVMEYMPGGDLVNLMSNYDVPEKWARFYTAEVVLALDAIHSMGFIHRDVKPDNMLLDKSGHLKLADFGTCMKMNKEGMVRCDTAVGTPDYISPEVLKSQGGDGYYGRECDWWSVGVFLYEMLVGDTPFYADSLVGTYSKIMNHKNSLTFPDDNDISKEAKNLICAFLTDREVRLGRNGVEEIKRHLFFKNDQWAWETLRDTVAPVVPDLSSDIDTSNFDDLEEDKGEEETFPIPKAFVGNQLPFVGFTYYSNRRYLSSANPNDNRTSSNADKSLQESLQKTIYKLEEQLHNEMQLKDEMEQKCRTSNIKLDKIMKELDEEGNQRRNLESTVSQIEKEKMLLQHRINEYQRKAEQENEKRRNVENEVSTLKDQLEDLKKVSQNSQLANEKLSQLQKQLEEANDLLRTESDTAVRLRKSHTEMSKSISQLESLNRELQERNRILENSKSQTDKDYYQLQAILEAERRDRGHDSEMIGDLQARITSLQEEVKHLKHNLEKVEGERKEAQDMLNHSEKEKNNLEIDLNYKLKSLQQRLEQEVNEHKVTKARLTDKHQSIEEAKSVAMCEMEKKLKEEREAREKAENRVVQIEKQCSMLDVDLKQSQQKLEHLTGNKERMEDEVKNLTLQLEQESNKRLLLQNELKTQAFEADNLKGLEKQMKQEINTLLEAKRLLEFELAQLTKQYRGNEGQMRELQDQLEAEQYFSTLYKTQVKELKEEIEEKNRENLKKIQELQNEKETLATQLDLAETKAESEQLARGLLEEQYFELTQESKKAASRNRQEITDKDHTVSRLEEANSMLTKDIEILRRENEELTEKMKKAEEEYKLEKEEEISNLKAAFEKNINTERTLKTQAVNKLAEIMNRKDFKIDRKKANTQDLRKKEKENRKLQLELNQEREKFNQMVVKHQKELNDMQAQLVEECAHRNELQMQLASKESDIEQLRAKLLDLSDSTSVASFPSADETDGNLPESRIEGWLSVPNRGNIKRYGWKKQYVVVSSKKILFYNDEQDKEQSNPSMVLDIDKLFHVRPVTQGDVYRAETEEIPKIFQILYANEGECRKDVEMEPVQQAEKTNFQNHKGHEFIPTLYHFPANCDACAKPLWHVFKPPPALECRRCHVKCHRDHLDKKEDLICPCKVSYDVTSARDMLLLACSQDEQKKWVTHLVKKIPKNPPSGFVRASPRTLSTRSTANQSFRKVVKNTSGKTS
- PROTOCOL_DETAILS: Cell-free biochemical kinase activity assay (pMYPT1 immunoblot)
- Set-up: purchased Invitrogen
- DETAILS: ROCK1, 1 µM
RESULT_TYPE: inhibition of kinase activity (qualitative immunoblot)

>>> print(df.to_string())
                               smiles_entry       subject_of_test    experimental_result
0  O=C1N/C(=N\CCc2ccccc2)S/C1=C/c1c[nH]c2ncccc12  ROCK1 (Homo sapiens)  significantly inhibit
1  O=C1N/C(=N\Cc2ccccc2)S/C1=C/c1c[nH]c2ncccc12  ROCK1 (Homo sapiens)  significantly inhibit

====

- Test system: SK-MEL-5
- PROTOCOL_DETAILS: NCI-60 screen (SRB)
- Type: cell-based, human
- DETAILS: SK-MEL-5 (Melanoma), 10 µM, 48 h; negative = cell death vs time zero
Entries and their percent cell growth values follow.
Quick note: give the figure in %, leave out the unit.

>>> df
                                   compound  unit_of_measure  experimental_result
0  Cl.O=C1NC(=NCCc2ccccc2)SC1=Cc1c[nH]c2ncccc12 (mixture of isomers) [DJ4-HCl]                %                 −0.2
1  CC/N=C1\NC(=O)/C(=C\c2c[nH]c3ncccc23)S1 [DJE4]                %                  9.2
2  C=CC/N=C1\NC(=O)/C(=C\c2c[nH]c3ncccc23)S1 [DJ-Allyl]                %                  2.0

Please find the next compound below.
Form entry - test system: SK-MEL-5; read-out: percent cell growth; compound: O=C1N/C(=N\CCc2ccccc2)S/C1=C/c1c[nH]c2ncccc12 [DJ4]
14.5

====

- System: A375M
- PROTOCOL_DETAILS: MTT cell growth assay, 48 h
- Type: cell-based
- DETAILS: Homo sapiens, 2000 cells/well, ±SE, read-out: IC50 from MTT assays
RESULT_TYPE: IC50

Consider the following illustrative entries.
In [3]: df
Out[3]:
                               smiles_entry  experimental_result
0  O=C1N/C(=N\CCN2CCOCC2)S/C1=C/c1c[nH]c2ncccc12              > 10 µM
1  O=C1N/C(=N\CCc2ccccc2)S/C1=C/c1c[nH]c2ncccc12               1.1 µM
2   CC/N=C1\NC(=O)/C(=C\c2c[nH]c3ncccc23)S1               5.1 µM

Form entry - test system: A375M; read-out: IC50; compound: C=CC/N=C1\NC(=O)/C(=C\c2c[nH]c3ncccc23)S1
4.7 µM

Same read-out for O=C1N/C(=N\Cc2ccccc2)S/C1=C/c1c[nH]c2ncccc12 ?
0.49 µM

====

- System: NCI-H322M
- PROTOCOL_DETAILS: NCI-60 screen (SRB)
- Format: cell-based, human
- DETAILS: NCI-H322M (Non-Small Cell Lung Cancer), 10 µM, 48 h; negative = cell death vs time zero
RESULT_TYPE: percent cell growth (%)
Quick note: give the figure in %, leave out the unit.

Consider the following illustrative entries.
>>> df
                                   compound  experimental_result
0  C=CC/N=C1\NC(=O)/C(=C\c2c[nH]c3ncccc23)S1 [DJ-Allyl]                 10.2
1  Cl.O=C1NC(=NCCc2ccccc2)SC1=Cc1c[nH]c2ncccc12 (mixture of isomers) [DJ4-HCl]                 19.6
2  CC/N=C1\NC(=O)/C(=C\c2c[nH]c3ncccc23)S1 [DJE4]                  5.8

Entry under review: O=C1N/C(=N\CCc2ccccc2)S/C1=C/c1c[nH]c2ncccc12 [DJ4] . Reported percent cell growth?
5.2

====

- SUBJECT_OF_TEST: MRCKβ (Homo sapiens, UniProt Q9Y5S2)
- Construct: purchased Invitrogen
- Sequence (Q9Y5S2 whole entry): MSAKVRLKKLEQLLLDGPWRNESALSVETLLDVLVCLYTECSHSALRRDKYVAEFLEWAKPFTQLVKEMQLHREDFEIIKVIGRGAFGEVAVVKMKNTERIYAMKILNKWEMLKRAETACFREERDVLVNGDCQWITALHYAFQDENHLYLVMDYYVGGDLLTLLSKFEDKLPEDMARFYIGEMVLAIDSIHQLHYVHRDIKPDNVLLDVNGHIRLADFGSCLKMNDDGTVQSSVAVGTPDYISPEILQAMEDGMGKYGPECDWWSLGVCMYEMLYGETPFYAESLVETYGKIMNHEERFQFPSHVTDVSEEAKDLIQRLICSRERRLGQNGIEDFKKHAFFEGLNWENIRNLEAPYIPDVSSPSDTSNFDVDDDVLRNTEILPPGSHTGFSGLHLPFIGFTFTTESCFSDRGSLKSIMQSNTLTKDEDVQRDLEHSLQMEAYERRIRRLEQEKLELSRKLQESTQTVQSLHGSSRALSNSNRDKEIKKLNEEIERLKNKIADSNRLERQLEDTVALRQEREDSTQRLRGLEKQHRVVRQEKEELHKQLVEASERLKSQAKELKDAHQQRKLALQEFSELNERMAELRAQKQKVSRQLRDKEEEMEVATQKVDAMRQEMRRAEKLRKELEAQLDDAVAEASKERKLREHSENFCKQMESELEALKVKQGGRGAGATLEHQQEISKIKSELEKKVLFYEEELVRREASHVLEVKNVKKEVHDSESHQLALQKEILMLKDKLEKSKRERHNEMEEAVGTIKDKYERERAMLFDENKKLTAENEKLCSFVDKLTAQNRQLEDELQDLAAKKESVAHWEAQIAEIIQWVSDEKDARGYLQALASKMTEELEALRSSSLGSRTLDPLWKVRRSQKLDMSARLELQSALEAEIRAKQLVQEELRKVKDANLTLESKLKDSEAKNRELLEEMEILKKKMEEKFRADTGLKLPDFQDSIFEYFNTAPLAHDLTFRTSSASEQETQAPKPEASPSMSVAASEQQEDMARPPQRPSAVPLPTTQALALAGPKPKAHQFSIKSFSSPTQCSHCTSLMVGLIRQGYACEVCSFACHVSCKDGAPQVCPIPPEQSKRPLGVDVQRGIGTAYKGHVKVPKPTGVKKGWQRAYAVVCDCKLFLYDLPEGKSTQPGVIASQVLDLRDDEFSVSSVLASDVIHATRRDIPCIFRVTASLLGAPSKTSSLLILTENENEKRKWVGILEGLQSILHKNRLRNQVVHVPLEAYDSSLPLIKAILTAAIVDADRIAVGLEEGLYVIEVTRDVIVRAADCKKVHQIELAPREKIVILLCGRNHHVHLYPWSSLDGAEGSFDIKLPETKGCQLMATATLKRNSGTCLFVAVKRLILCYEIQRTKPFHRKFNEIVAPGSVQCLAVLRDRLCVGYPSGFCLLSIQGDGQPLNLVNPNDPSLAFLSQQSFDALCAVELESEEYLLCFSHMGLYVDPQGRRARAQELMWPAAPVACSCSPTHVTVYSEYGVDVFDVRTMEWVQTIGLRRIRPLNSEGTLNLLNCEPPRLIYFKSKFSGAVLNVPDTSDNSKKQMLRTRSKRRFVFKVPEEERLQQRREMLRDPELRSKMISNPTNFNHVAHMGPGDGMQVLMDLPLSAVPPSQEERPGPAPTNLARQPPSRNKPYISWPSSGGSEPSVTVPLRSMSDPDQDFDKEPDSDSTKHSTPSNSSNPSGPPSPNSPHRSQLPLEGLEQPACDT
- PROTOCOL_DETAILS: Cell-free biochemical kinase activity assay (pMYPT1 immunoblot)
- DETAILS: 1 µM
RESULT_TYPE: inhibition of kinase activity (qualitative immunoblot)

In [3]: df
Out[3]:
                               smiles_entry    experimental_result
0   CC/N=C1\NC(=O)/C(=C\c2c[nH]c3ncccc23)S1     minimal inhibition
1  O=C1N/C(=N\CCc2ccccc2)S/C1=C/c1c[nH]c2ncccc12  significantly inhibit
2  O=C1N/C(=N\Cc2ccccc2)S/C1=C/c1c[nH]c2ncccc12  significantly inhibit
3  C=CC/N=C1\NC(=O)/C(=C\c2c[nH]c3ncccc23)S1     minimal inhibition

Form entry - test system: MRCKβ (Homo sapiens, UniProt Q9Y5S2); read-out: inhibition of kinase activity (qualitative immunoblot); molecule: O=C1N/C(=N\CCN2CCOCC2)S/C1=C/c1c[nH]c2ncccc12
minimal inhibition

====

Entries and their percent cell growth values follow.
- Test system: MOLT-4
- PROTOCOL_DETAILS: NCI-60 screen (SRB)
- Format: cell-based, human
- DETAILS: MOLT-4 (Leukemia), 10 µM, 48 h; negative = cell death vs time zero
Quick note: give the figure in %, leave out the unit.

Entry under review: C=CC/N=C1\NC(=O)/C(=C\c2c[nH]c3ncccc23)S1 . Reported percent cell growth?
5.8

Same read-out for CC/N=C1\NC(=O)/C(=C\c2c[nH]c3ncccc23)S1 ?
−6.0

Same read-out for O=C1N/C(=N\CCc2ccccc2)S/C1=C/c1c[nH]c2ncccc12 ?
11.4

Same read-out for Cl.O=C1NC(=NCCc2ccccc2)SC1=Cc1c[nH]c2ncccc12 (mixture of isomers) [DJ4-HCl] ?
8.6

====

- Tested on: HCC-2998
- PROTOCOL_DETAILS: NCI-60 screen (SRB)
- Format: cell-based, human
- DETAILS: HCC-2998 (Colon Cancer), 10 µM, 48 h; negative = cell death vs time zero
RESULT_TYPE: percent cell growth (%)
Quick note: give the figure in %, leave out the unit.

Consider the following illustrative entries.
>>> df
                                   compound  experimental_result
0  O=C1N/C(=N\CCc2ccccc2)S/C1=C/c1c[nH]c2ncccc12 [DJ4]                 53.9
1  CC/N=C1\NC(=O)/C(=C\c2c[nH]c3ncccc23)S1 [DJE4]                 10.2
2  Cl.O=C1NC(=NCCc2ccccc2)SC1=Cc1c[nH]c2ncccc12 (mixture of isomers) [DJ4-HCl]                 66.2

Please find the next compound below.
Entry under review: C=CC/N=C1\NC(=O)/C(=C\c2c[nH]c3ncccc23)S1 [DJ-Allyl] . Reported percent cell growth?
44.6

====

- System: SW-620
- PROTOCOL_DETAILS: NCI-60 screen (SRB)
- Assay type: cell-based, human
- DETAILS: SW-620 (Colon Cancer), 10 µM, 48 h; negative = cell death vs time zero
Entries and their percent cell growth values follow.
Quick note: give the figure in %, leave out the unit.

In [3]: df
Out[3]:
                                   molecule  experimental_result
0   CC/N=C1\NC(=O)/C(=C\c2c[nH]c3ncccc23)S1                  6.5
1  O=C1N/C(=N\CCc2ccccc2)S/C1=C/c1c[nH]c2ncccc12                  9.9
2  C=CC/N=C1\NC(=O)/C(=C\c2c[nH]c3ncccc23)S1                  7.4

Entry under review: Cl.O=C1NC(=NCCc2ccccc2)SC1=Cc1c[nH]c2ncccc12 (mixture of isomers) [DJ4-HCl] . Reported percent cell growth?
7.8
